Each recorded value in this set is attributed to patent US20260176319A1.

target: human GRP receptor (human, UniProt P30550 1-384); test: cell-based or functional assay
Sequence (P30550 whole entry): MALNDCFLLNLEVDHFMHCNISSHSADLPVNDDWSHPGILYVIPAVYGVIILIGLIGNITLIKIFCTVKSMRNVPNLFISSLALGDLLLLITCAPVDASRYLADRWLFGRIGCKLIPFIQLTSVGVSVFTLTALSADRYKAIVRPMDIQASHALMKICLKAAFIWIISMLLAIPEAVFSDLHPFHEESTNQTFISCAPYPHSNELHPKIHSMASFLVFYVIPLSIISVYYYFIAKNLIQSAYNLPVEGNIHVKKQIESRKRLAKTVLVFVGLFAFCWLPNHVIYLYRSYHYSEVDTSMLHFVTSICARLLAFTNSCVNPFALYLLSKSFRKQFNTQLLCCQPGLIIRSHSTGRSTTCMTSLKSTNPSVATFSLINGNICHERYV
Starred links: 1 amine or outer side, 2 acyl side, 3 side chain; linkers in the order of their positions; H or OH if unused. Non-standard residues stand in square brackets, D forms with d. *: point of attachment. C18 diacid = O=C(O)CCCCCCCCCCCCCCCCC(=O)*; γGlu = O=C(O)[C@H](CCC(=O)[*:2])N[*:1]; Nle = CCCC[C@H](N)C(=O)O; AEEA = NCCOCCOCC(=O)O; βAla = NCCC(=O)O
Property Label: hIP1 GRPR EC50 (nM)

1) {C18 diacid}-[γGlu][γGlu][AEEA][AEEA]GRHWAV[βAla]HL[Nle]-NH2 (SMILES CCCC[C@H](NC(=O)[C@H](CC(C)C)NC(=O)[C@H](Cc1c[nH]cn1)NC(=O)CCNC(=O)[C@@H](NC(=O)[C@H](C)NC(=O)[C@H](Cc1c[nH]c2ccccc12)NC(=O)[C@H](Cc1c[nH]cn1)NC(=O)[C@H](CCCNC(=N)N)NC(=O)CNC(=O)COCCOCCNC(=O)COCCOCCNC(=O)CC[C@H](NC(=O)CC[C@H](NC(=O)CCCCCCCCCCCCCCCCC(=O)O)C(=O)O)C(=O)O)C(C)C)C(N)=O) [Peptide 243]	3.6
